Please provide measured TGI for the entries that follow.
System: M14 melanoma
Assay comment: NCI tumour cell line growth inhibition, 48 h

Under M14 melanoma: report TGI of COC(=O)[C@]12CC[C@@H](C)[C@H](C)[C@@H]1C1=CC[C@@H]3[C@@]4(C)C[C@@H](OC(=O)c5ccco5)[C@H](O)[C@@](C)(CO)[C@@H]4[C@H](O)C[C@@]3(C)[C@]1(C)CC2 .
4.74 µM

With M14 melanoma as the test system, provide measured TGI for this molecule: CCCCc1ccc(Nc2nc3c(ncn3C3OC(COC(C)=O)C(OC(C)=O)C3OC(C)=O)c(=O)[nH]2)cc1 (stereo not drawn)
41.2 µM

Look up M14 melanoma data: TGI of O=c1oc2ncccc2n1Cc1ccc([N+](=O)[O-])cc1 , then report it.
> 100 µM

Please look at CN(C)c1cccc(-c2cc(=O)c3ccccc3[nH]2)c1 and tell me its recorded TGI on M14 melanoma.
> 100 µM

Report its TGI with M14 melanoma as the test system: CCOP(=O)(CCP(=O)(OCC)OCC)OCC.C[CH2][Sn]([Cl])([Cl])[CH2]C
> 57.8 µM

Tell me TGI of CCCOc1ccc(/C(Cl)=C(\C=O)c2ccc(OC)c(OC)c2)cc1OCCC when tested on M14 melanoma.
> 100 µM

Find TGI for CCCCCCCCCCCCCCCCOC(=O)C(C(=O)OCCCCCCCCCCCCCCCC)[N+](C)(C)CCOC(C)=O on M14 melanoma and write it down.
38.5 µM

Report value only: TGI, M14 melanoma, Clc1ccc(-c2nc3c(-c4ccc(Cl)cc4)nc(-c4ccccc4)cn3c2-c2ccc(Cl)cc2)cc1
> 50 µM

Please report the measured TGI for N#Cc1ccc(Oc2nccc(-c3c(-c4ccc(F)cc4)ncn3C3CCNCC3)n2)cc1 tested on M14 melanoma.
> 25 µM

Write down measured TGI (M14 melanoma) for this molecule. NC(=O)c1ccccc1NC(=O)C(=O)C(C(=O)c1ccc2ccccc2c1)C1OC(=O)c2ccccc21 (stereo not drawn)
30 µM

Please indicate recorded TGI of CCOc1ccccc1NC(=O)C(=O)CC(=O)C1=C(C)Nc2ccccc2S1 measured with M14 melanoma.
> 100 µM

# lookup: M14 melanoma TGI, key = O=C(CCCn1c2c(sc3ncccc32)c(=O)n2nnc(-c3ccccc3)c12)NCCc1cnc[nH]1
19.4 µM

Quote M14 melanoma TGI for entry Nc1nc(N)c2cc(CNc3ccc(Cl)c(Cl)c3)ccc2n1 .
1.7 µM

Return reported TGI for target or system M14 melanoma, item CC(C)(O)[C@@H]1CCC(C)([C@H]2[C@@H](O)CC3(C)C4CC(OC5OC(CO)C(O)C(O)C5O)C5C(C)(C)[C@@H](OC6OCC(O)C(O)C6O)CC[C@@]56C[C@@]46CC[C@]23C)O1 (stereo partly drawn) .
> 100 µM

Fetch value of TGI on M14 melanoma for COc1cc2c(cc1OCCCCNC(=O)c1cc3ccccc3[nH]1)N=CC1CCCN1C2=O (stereo not drawn) .
> 100 µM

Report TGI from M14 melanoma testing of C=C1CC(OC(C)=O)/C=C(/C)CCC(C(C)(C)O)CC1O (stereo not drawn)
> 100 µM

Specify TGI for C=CCC(C(=O)OC)C1(C(=O)OC)c2[nH]c3ccccc3c2CCN1Cc1ccccc1 (stereo not drawn) , system M14 melanoma.
> 100 µM

Report TGI under test system M14 melanoma for C/C(CN1C(=O)c2ccccc2C1=O)=N\NS(=O)(=O)c1ccccc1 .
> 100 µM
